Where these numbers come from: patent US20200024330A1

target: HIV-1 92BR020 envelope glycoprotein (Env) (HIV-1); assay: cell-based or functional assay

{"columns": ["BINDER", "IC50 neutralization (µg/mL)"],
 "data": [
  ["PGT-123 (antibody, V domains shown) VH: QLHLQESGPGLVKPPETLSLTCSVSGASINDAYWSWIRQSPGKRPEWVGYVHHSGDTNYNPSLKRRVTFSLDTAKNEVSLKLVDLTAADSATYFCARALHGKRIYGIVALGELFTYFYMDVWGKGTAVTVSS VL: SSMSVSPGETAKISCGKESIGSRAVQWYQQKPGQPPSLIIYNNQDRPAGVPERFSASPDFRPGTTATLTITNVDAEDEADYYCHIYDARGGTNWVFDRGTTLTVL", 0.013],
  ["PGT-126 (antibody, V domains shown) VH: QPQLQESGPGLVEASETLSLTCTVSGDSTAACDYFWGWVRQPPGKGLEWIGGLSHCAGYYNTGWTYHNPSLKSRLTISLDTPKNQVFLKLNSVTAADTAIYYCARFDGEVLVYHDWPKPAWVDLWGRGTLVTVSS VL: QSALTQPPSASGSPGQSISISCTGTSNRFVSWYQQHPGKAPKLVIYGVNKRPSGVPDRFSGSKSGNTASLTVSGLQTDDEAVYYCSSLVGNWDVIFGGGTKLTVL", 0.0163],
  ["PGT-135 (antibody, V domains shown) VH: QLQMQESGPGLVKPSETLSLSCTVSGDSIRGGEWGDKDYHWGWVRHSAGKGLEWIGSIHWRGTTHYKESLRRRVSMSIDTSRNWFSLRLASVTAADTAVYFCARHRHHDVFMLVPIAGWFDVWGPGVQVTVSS VL: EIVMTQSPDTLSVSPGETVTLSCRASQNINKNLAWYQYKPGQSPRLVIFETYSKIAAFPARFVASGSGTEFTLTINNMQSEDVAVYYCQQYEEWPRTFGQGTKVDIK", 0.104]
]}
